Origin of measurements: paper PMC2807882

- Study System: Xlp53 (Xenopus laevis, UniProt Q7T1D0 1-362)
- Sequence (Q7T1D0 entry or part of it): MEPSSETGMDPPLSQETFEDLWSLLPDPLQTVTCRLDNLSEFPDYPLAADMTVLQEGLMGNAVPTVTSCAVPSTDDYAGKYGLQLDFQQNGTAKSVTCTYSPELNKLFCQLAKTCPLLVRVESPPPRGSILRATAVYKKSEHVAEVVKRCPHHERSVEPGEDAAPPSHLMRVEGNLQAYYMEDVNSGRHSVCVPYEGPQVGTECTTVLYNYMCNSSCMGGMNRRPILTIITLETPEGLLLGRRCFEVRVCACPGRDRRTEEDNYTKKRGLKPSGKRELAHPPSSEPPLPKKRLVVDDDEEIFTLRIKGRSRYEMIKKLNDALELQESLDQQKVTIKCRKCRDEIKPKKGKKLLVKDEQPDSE
- Test Protocol: fluorescence anisotropy direct titration; 25 mM sodium phosphate (purification buffer pH 7.2), 225 mM NaCl, 10% v/v glycerol, 5 mM DTT, 0.2 mg/mL BSA, 22 C
- Experimental Parameters: protein: recombinant; tags: N-terminal 6xHis-lipoyl-TEV tag, cleaved; chain copies: 4; label: 5'-Alexa488
Readout: pKd
Scale explanation: pKd corresponds to minus log10 of a concentration expressed in moles per litre.

IN: What value of measured pKd is listed for Ref_Alexa488 (dsDNA) DNA 1: GGACATGTCCGGACATGTCC DNA 2: GGACATGTCCGGACATGTCC ?
OUT: 7.32
